Target: human GPR120 (Homo sapiens)
Construct: host or cells: HEK293 cells co-expressing Gqi5
Sequence (Q5NUL3 whole entry): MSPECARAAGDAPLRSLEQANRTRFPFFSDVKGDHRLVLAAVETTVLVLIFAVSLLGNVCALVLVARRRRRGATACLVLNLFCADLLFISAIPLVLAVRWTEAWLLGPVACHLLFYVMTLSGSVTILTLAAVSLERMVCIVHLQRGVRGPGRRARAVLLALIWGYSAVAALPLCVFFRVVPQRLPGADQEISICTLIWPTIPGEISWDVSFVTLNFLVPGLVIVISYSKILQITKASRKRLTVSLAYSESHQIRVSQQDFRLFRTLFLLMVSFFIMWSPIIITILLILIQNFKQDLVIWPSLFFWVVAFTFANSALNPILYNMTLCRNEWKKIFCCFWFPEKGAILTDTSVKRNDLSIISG
Experiment: Intracellular Ca2+ assay in human GPR120 stable cell line (HEK293 co-expressing Gqi5), Flexstation
Format: cell-based
Details: % activity at 5 μM compared to the maximal activity of GW9508 at 6.7 μM (=100%); human GPR120 cells, Ca2+ fluorescence
assay-endpoint: % Activity (GW9508 Reference Compound) (%)
Return type: number; implicit unit %.

In the examples that follow, each entry is paired with its recorded % Activity (GW9508 Reference Compound).
C[C@H](Cc1ccc(OCc2cc(Cl)cc3c2OC(C)(C)C3)c(C(F)(F)F)c1)C(=O)O [Example 143] = 90.56
CC(Cc1cc(F)c(OCc2cccc3c2OC(C)(C)C3)c(F)c1)C(=O)O (centres unmarked) [Example 23] = 112.7429
CC(Cc1cc(F)c(OCc2c(F)c(F)cc3c2OC(C)(C)C3)c(F)c1)C(=O)O (centres unmarked) [Example 42] = 140.94
CC(Cc1cc(Cl)c(OCc2cc(Cl)cc3c2OC(C)(C)C3)c(Cl)c1)C(=O)O (centres unmarked) [Example 14] = 84.49
CC1(C)Cc2cc(Cl)cc(COc3ccc(C(C)(C)CC(=O)O)cc3)c2O1 [Example 156] = 148.87
CC(Cc1ccc(OCc2ccc(C(F)(F)F)c3c2OC(C)(C)C3)c(F)c1)C(=O)O (centres unmarked) [Example 33] = 142.9517
COc1cc(CC(C)C(=O)O)ccc1OCc1cc(F)cc2c1OC(C)(C)C2 (centres unmarked) [Example 7] = 168.2
O=C(O)C1CC1c1ccc(OCc2cc(F)cc3c2OC2(CCCC2)C3)cc1 (centres unmarked) [Example 165] = 158.08

Quick one: % Activity (GW9508 Reference Compound) of CC1(C)Cc2c(ccc(F)c2COc2c(F)cc(C3CC3C(=O)O)cc2F)O1 (centres unmarked) [Example 99] ?
101.53

Next up: CC1(C)Cc2cc(Cl)cc(COc3ccc4c(c3)CC[C@@H]4CC(=O)O)c2O1 [Example 179]
105.44

Next up: Cc1c(CCC(=O)O)ccc(OCc2cc(F)cc3c2OC(C)(C)C3)c1C [Example 208]
147.47

Next up: CC(Cc1cc(F)c(OCc2cccc3c2OC(C)C3C)c(F)c1)C(=O)O (centres unmarked) [Example 40]
95.33

Next up: CC1(C)Cc2cc(F)cc(COc3c(F)cc(C4CC4C(=O)O)cc3F)c2O1 (centres unmarked) [Example 19]
125.5

Next up: CC1(C)Cc2cc(Cl)cc(COc3c(F)cc(C4CC4C(=O)O)cc3F)c2O1 (racemic) [Example 35]
60.11

Next up: CC(=O)Nc1cc(COc2ccc(CC(C)C(=O)O)cc2)c2c(c1)CC(C)(C)O2 (centres unmarked) [Example 123]
47.01

Next up: CC(CC(=O)O)c1cc(F)c(OCc2cc(Cl)cc3c2OC(C)(C)C3)c(F)c1 (centres unmarked) [Example 106]
154.51

Next up: COc1cc(COc2ccc(CC(C)C(=O)O)cc2)c2c(c1)CC(C)(C)O2 (centres unmarked) [Example 108]
143.85
